- target-or-system: NADPH oxidase (Homo sapiens, UniProt P04839+P13498+P14598+P19878)
- Construct: 4×10^5 cell equivalents (cell eq) of neutrophil membranes; of neutrophil cytosol, or (2) 100 nM each of baculovirus recombinant p47-phox and p67-phox; from tissue; host or cells: neutrophil membranes and cytosol (human neutrophils, leukapheresis or blood)
- Sequence (P04839 2-570 limits assumed): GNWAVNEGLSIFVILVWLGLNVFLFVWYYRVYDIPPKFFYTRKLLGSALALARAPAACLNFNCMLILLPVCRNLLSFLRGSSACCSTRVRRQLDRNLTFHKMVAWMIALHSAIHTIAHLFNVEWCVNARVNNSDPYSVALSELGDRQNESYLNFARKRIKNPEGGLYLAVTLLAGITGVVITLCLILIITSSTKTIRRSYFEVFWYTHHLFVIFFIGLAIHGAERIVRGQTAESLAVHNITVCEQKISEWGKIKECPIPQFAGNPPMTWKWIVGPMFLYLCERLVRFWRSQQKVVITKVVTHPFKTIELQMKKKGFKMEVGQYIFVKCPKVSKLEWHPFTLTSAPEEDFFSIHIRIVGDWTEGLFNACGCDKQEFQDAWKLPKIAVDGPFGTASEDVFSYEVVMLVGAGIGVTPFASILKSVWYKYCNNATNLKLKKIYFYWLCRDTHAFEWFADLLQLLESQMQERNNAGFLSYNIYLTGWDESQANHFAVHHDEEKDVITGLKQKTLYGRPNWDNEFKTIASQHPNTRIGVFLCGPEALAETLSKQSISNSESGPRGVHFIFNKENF
- Sequence (P13498 2-195 limits assumed): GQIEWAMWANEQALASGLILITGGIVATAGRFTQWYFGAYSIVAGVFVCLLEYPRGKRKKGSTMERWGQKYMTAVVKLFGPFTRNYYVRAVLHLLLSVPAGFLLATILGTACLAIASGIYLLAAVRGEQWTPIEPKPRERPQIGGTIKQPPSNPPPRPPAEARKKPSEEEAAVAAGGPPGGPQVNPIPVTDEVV
- Sequence (P14598 whole entry): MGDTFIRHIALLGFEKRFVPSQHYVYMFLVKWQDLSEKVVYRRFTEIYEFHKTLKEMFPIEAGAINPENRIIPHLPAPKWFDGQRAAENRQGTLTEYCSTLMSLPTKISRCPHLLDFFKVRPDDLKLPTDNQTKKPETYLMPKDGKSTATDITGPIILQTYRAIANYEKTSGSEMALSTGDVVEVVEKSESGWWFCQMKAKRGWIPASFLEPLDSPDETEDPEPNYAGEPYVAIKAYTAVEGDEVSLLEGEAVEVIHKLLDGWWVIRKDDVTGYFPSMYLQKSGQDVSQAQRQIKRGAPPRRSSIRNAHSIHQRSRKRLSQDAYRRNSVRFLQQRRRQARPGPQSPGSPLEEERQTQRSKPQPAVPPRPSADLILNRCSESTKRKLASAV
- Sequence (P19878 whole entry): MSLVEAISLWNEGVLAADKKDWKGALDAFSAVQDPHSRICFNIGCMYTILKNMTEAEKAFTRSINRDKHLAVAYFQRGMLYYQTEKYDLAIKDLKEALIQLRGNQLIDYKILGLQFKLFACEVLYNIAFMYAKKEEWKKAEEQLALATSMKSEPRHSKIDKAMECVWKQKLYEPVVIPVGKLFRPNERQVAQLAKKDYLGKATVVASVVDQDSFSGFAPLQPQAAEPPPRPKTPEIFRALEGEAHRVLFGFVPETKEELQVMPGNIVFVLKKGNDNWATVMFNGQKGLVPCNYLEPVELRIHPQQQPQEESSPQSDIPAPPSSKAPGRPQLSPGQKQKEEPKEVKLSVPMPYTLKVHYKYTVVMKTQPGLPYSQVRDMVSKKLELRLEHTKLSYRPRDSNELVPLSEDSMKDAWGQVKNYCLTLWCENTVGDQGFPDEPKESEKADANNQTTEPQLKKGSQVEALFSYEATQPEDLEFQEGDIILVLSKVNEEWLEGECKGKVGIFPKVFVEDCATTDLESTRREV
- assay-notes: cell-free NADPH oxidase assay (O2- production), inhibition by peptides
- Format: biochemical
- measurement-setup: Table 3; peptide incubated five minutes before 90 μM SDS or 100 μM arachidonic acid
Where no end group is shown, it is not given here.
measured-property: Inhibitory Activity

As a guide, the following entries are already answered.
KNVFDEAILAALEPPEPKKSRR [CDC42Hs] = Inactive
PGKARKKSS [Rap1B aa172-180, PGKARKKSS] = Active
LTQRGLKTVFDE [Rac1 aa161-172, LTQRGLKTVFDE] = Inactive
SKFEDLNKRKDT [Gi #2, SKFEDLNKRKDT, reference compound] = Inactive
CPQPTRQQKRA [Rac2 aa178-188, CPQPTRQQKRA] = Active
EKKKPKKKS [Rap1A aa172-180, EKKKPKKKS] = Active
INLKALAALAKKIL-NH2 [Mastoparan] = Active
GLAQKLLEALQKALLA [ICS4, GLAQKLLEALQKALLA] = Active

Form field - read-out: Inhibitory Activity; system: NADPH oxidase (Homo sapiens, UniProt P04839+P13498+P14598+P19878); submitted item: EKLKEKKLTPI [Rac1 aa127-137, EKLKEKKLTPI] Inactive

Return Inhibitory Activity measured with NADPH oxidase (Homo sapiens, UniProt P04839+P13498+P14598+P19878) given this substance: MGCTVSAEDKAAAER [Gi #5, MGCTVSAEDKAAAER, reference compound] Inactive

Give NADPH oxidase (Homo sapiens, UniProt P04839+P13498+P14598+P19878) Inhibitory Activity for GEHAQKHEQALQKLA [ECG 163, GEHAQKHEQALQKLA, reference compound] Inactive

Record lookup: for NADPH oxidase (Homo sapiens, UniProt P04839+P13498+P14598+P19878), what Inhibitory Activity belongs to GELAQKLEQALQKLA [ECG 125, GELAQKLEQALQKLA, reference compound] ? Inactive

What reported Inhibitory Activity corresponds to CPPPVKKRKRK [Rac1 aa178-188, CPPPVKKRKRK] on NADPH oxidase (Homo sapiens, UniProt P04839+P13498+P14598+P19878)? Active

* * *

- target-or-system: NADPH oxidase (Homo sapiens, UniProt P04839+P13498+P14598+P19878)
- Construct: 4×10^5 cell equivalents (cell eq) of neutrophil membranes; of neutrophil cytosol, or (2) 100 nM each of baculovirus recombinant p47-phox and p67-phox; from tissue; host or cells: neutrophil membranes and cytosol (human neutrophils, leukapheresis or blood)
- assay-notes: cell-free NADPH oxidase assay (O2- production), inhibition by peptides
- Assay type: biochemical
- measurement-setup: 100 μg/ml peptide; cell-free system
Where no end group is shown, it is not given here.
measured-property: Percent Inhibition (%)
Numbers only here, please. The scale is %.

Here's what some known entries look like.
TISSLFSRLFGKKQ [ARF 27, TISSLFSRLFGKKQ] = 91.3
SSLFSRLFGKKQ [ARF 28, SSLFSRLFGKKQ] = 87.6

For the sequence GEHAQKHEQALQKLA [ECG 163, GEHAQKHEQALQKLA, reference compound] , what Percent Inhibition is on record? 8.0

For the sequence GLTISSLFSRLFGKKQ [ARF 26, GLTISSLFSRLFGKKQ] , what Percent Inhibition is on record? 100

Name the reported Percent Inhibition value associated with the sequence GELAQKLEQALQKLA [ECG 125, GELAQKLEQALQKLA, reference compound] 23.3

So what's the measured Percent Inhibition for this one? GLAQKLLEALQKALLA [ICS4, GLAQKLLEALQKALLA] 99.8
